assay: In vivo pharmacokinetic studies in rats, 1 hr intravenous infusion; details: male, Sprague-Dawley, rat, in vivo, iv, 100 mg/kg
RESULT_TYPE: Tmax (h)
Numbers only; they are read as h.

Please indicate Tmax recorded for Cn1c(=O)ccc2ccc(F)c(CCNC[C@H]3CN(c4cnc5c(n4)NC(=O)CO5)C(=O)O3)c21
1

---

assay: In vivo pharmacokinetic studies in rats, 1 hr intravenous infusion; settings: male, Sprague-Dawley, rat, in vivo, iv, 150 mg/kg, Vd, male SD rats, 1 h IV infusion
RESULT_TYPE: Vd
Please give the number followed by its unit.

Please indicate Vd recorded for Cn1c(=O)ccc2ccc(F)c(CCNC[C@H]3CN(c4cnc5c(n4)NC(=O)CO5)C(=O)O3)c21 [Example 15]
12.9 L/kg
